Test system: ACHN
procedure_text: NCI tumour cell line growth inhibition, 48 h
Active and inactive are the calls of the source. No stated cut-off is given here; in the data, active = GI50 up to about 1.1 µM and inactive = higher.
metric_name: GI50

Which value of GI50 has been reported for Cc1ccc(/C=N\NC2c3cc(Cl)ccc3Nc3nc(O)nc(C)c32)cc1 (centres undefined) in the records? > 100 µM (inactive)

Which value of GI50 has been reported for COc1ccc(/C=C2\C[C@H]3[C@@H]4CC=C5C[C@@H](OC(C)=O)CC[C@]5(C)[C@H]4CC[C@]3(C)C2=O)cc1OC in the records? 49.5 µM (inactive)

Which value of GI50 has been reported for CCOC(=O)/C(C#N)=C(N)/C(=N\Nc1cccc(C(F)(F)F)c1)C(=O)OCC in the records? > 100 µM (inactive)

Which value of GI50 has been reported for CCc1cccc(=O)c([O-])c1.CCc1cccc(=O)c([O-])c1.[Bi+3].[Cl-] in the records? 8.17 µM (inactive)

Which value of GI50 has been reported for O=C1/C(=C/c2ccc([N+](=O)[O-])cc2)CCCc2ccccc21 in the records? > 100 µM (inactive)

---

Test system: SK-OV-3
procedure_text: NCI tumour cell line growth inhibition, 48 h
Active and inactive are the calls of the source. Cut-off read from the data, not from the text of the source: active = GI50 up to about 1.1 µM and inactive = higher.
A correct response names exactly one class from T = active, F = inactive

The examples below pair each entry with its known result.
>>> print(df.to_string())
                                   compound  assigned_class
0  COc1ccc2c3c1O[C@H]1C(O)CCC4(O)[C@@H](C2)NCC[C@]314 (stereo not given in full)               F
1  CCOC(=O)c1c(N2CCOCC2)[nH]c(=O)c(C(c2c(Cl)cccc2Cl)c2c(O)c(C(=O)OCC)c(N3CCOCC3)[nH]c2=O)c1O               F
2         O=C1NC(N2CCOCC2)=N/C1=C\c1ccccc1O               F
3  O=C1OC2(c3ccc(O)cc3Oc3cc(O)ccc32)c2c1c(-c1ccccc1)c(-c1ccccc1)c(-c1ccccc1)c2-c1ccccc1               F

Per the records of this test, what outcome belongs to OC1COC(OCc2ccccc2)C(O)C1O (stereo not given) ? F

Per the records of this test, what outcome belongs to COc1cc(C(=O)OC2CC34CCNC35CC(OC5(OC)C2O)c2cc3c(cc24)OCO3)ccc1O (stereo not given) ? F

Per the records of this test, what outcome belongs to Cc1cc(Cl)ccc1NC(=O)/C(Cl)=C(/Cl)C(=O)O ? F

Per the records of this test, what outcome belongs to COc1c(O)cc2ccnc3c2c1N(C)C=C3 ? F

Per the records of this test, what outcome belongs to COc1cccc2c1NC(=O)Cc1c-2[nH]c2ccccc12 ? F

Per the records of this test, what outcome belongs to C=C1C[C@H]2C=Nc3cc(OCCCOc4cc5c(cc4OC)C(=O)N4CC(=C)C[C@H]4C=N5)c(OC)cc3C(=O)N2C1 [SJG-136] ? T

---

In this section we review reported GI50 values for a set of molecules.
System: UO-31
procedure_text: NCI tumour cell line growth inhibition, 48 h
Activity calls are given as the source filed them. No stated cut-off is given here; in the data, active = GI50 up to about 1.1 µM and inactive = higher.

Consider the following illustrative entries.
>>> df
                                   molecule               result
0  COC(=O)C1=CC2C=CC(C1C(=O)OC)C1C(C(=O)OC)=C(C(=O)OC)C(C(=O)OC)=C(C(=O)OC)C21OC (centres undefined)  > 100 µM (inactive)
1  Oc1ccc(CCc2cc(O)cc(O)c2)cc1 [DIHYDRORESVERATROL]  > 100 µM (inactive)
2  CCOC(=O)C1S/C(=N\c2ccc(C)c(C)c2)N=C1C (centres undefined)  > 100 µM (inactive)

Which value of GI50 has been reported for CN1CCN([C@H]2C[C@H]3[C@@H]4CC=C5C[C@@H](O)CC[C@]5(C)[C@H]4CC[C@]3(C)[C@H]2O)CC1 in the records? > 100 µM (inactive)

Which value of GI50 has been reported for CC1(C)C(=O)N(CCCCCCN2C(=O)C(C)(C)c3ccccc32)c2ccccc21 in the records? 31.2 µM (inactive)

Which value of GI50 has been reported for O=C1CSC(c2c[nH]c3ccccc23)N1c1ccccc1[N+](=O)[O-] (centres undefined) in the records? > 100 µM (inactive)
